# experimental target: Probable G-protein coupled receptor 174 (Homo sapiens)
# assay procedure: Inhibition of GPR174 (unknown origin) in cells assessed as incorporation of nuclear localization sequence into transmembrane protein by cellular redistribution assay
value type: pEC50
Numbers only, as −log10 of the molar value.

smiles_data=Cc1cc(Cc2ccc(NC(=O)c3cccs3)c(C)c2)ccc1NC(=O)c1cccs1 value_measured=6.30

Form: molecule = "CC1CCN(c2cc(N3CCN(S(=O)(=O)c4ccccc4)CC3)c([N+](=O)[O-])cc2F)CC1" ; pEC50 = 6.22

* * *

# experimental target: UniProt Q9BXC1
# assay procedure: Antagonist activity at human GPR174 expressed in cells assessed as inhibition of CRE-luc reporter activity by measuring decrease in Gs-protein signalling activity relative to control
# Assay type: functional, cell-based
# run conditions: filed as antagonist
The source made the active and inactive calls. No cut-off for these calls is given here.
value type: Activity

# annotated cases, reported Activity shown
smiles_data=Cc1cc(C(=O)N/N=C/c2cc(Br)ccc2O)c(C)o1 value_measured=Active
smiles_data=CCCC(=O)c1ccc(N2CCN(S(=O)(=O)c3ccc(C)cc3)CC2)c(F)c1 value_measured=Active
smiles_data=O=C(N/N=C/c1cc(Cl)ccc1O)c1ccncc1 value_measured=Active
smiles_data=Cc1cc(Cc2ccc(NC(=O)c3cccs3)c(C)c2)ccc1NC(=O)c1cccs1 value_measured=Active
smiles_data=Cc1ccccc1Nc1nnc(-c2ccc(C)c(S(N)(=O)=O)c2)c2ccccc12 value_measured=Active
smiles_data=Cc1ccc(-c2nnc(Nc3ccccc3)c3ccccc23)cc1S(N)(=O)=O value_measured=Active

With those in mind, consider the next molecule.
Documented Activity of "CC(=O)c1ccc(N2CCN(C(=O)c3ccc(F)cc3)CC2)c(F)c1" : Active

* * *

# experimental target: Probable G-protein coupled receptor 174 (Homo sapiens, UniProt Q9BXC1)
# Sequence (Q9BXC1 whole entry): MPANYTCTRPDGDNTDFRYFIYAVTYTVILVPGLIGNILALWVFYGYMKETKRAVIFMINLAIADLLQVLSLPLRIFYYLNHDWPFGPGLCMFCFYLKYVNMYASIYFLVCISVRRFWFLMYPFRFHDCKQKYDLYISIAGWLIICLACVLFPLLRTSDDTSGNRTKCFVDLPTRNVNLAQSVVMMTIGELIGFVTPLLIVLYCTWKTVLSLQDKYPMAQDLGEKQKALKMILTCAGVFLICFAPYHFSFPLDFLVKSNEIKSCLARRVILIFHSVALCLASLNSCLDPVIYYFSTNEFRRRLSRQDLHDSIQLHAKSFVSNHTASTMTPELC
# assay procedure: Allosteric modulator activity at human GPR174 expressed in cells assessed as inhibition of CRE-luc reporter activity by measuring decrease in Gs-protein signalling activity relative to control
# Type: functional, cell-based
# run conditions: filed as positive allosteric modulator
The source made the active and inactive calls. The calls are words filed in the database; no cut-off is given here.
value type: Activity

Reference set, count: 5
smiles_data=CC(=O)c1ccc(N2CCN(C(=O)c3ccc(F)cc3)CC2)c(F)c1 value_type=Activity value_measured=Active
smiles_data=Cc1cc(Cc2ccc(NC(=O)c3cccs3)c(C)c2)ccc1NC(=O)c1cccs1 value_type=Activity value_measured=Active
smiles_data=Cc1cc(C(=O)N/N=C/c2cc(Br)ccc2O)c(C)o1 value_type=Activity value_measured=Active
smiles_data=Cc1ccc(-c2nnc(Nc3ccccc3)c3ccccc23)cc1S(N)(=O)=O value_type=Activity value_measured=Active
smiles_data=O=C(N/N=C/c1cc(Cl)ccc1O)c1ccncc1 value_type=Activity value_measured=Active

Next:
Memo: "Cc1ccccc1Nc1nnc(-c2ccc(C)c(S(N)(=O)=O)c2)c2ccccc12" , reported Activity: Active

Origin of measurements: ChEMBL document CHEMBL4806960
